Would you kindly list SI (vs PMM) for each of these compounds?
System: primary peritoneal mouse macrophages (PMM)
Conditions: PMM IC50 / L. infantum IC50
Keep it simple and answer with nothing but the number.

Can you share its SI (vs PMM)? I mean this compound: COc1cc(S(=O)(=O)N2CCN(Cc3ccccc3)CC2)c(OC)cc1C
1

Can you share its SI (vs PMM)? I mean this compound: CN(C)S(=O)(=O)c1cccc(NC(=O)CN2CCCc3ccccc32)c1
1

Can you share its SI (vs PMM)? I mean this compound: CC[C@H](Cc1ccccc1)S(=O)(=O)c1ccccc1OC
2

Can you share its SI (vs PMM)? I mean this compound: COc1ccc(S(=O)(=O)N(C)C)cc1NC(=O)C1Cc2ccccc2O1 (stereo not drawn)
1

Can you share its SI (vs PMM)? I mean this compound: CCN(Cc1ccccc1)S(=O)(=O)c1ccccc1OC
6

Can you share its SI (vs PMM)? I mean this compound: COc1ccc(S(=O)(=O)N(C)C)cc1NC(=O)Cn1c(C)cc2ccccc21
1

Can you share its SI (vs PMM)? I mean this compound: O=S(=O)(NCc1ccccc1)c1cc(F)ccc1F
1

Can you share its SI (vs PMM)? I mean this compound: COc1ccc(OC)c(S(=O)(=O)N(CCO)Cc2ccccc2)c1
1

Can you share its SI (vs PMM)? I mean this compound: CCCCCOc1cc(C)c(C)cc1S(=O)(=O)NC1CCCCC1
31

---

Experiment: in vitro
Details: human, microsomes, pH 7.4, HLM CLint, human liver microsomes
VALUE_KIND: microsomal CLint at 0.5 μM (µL/min/mg)
Record the value in µL/min/mg, omitting the unit from your answer.

Can you share its microsomal CLint at 0.5 μM? I mean this compound: COc1ccc(OC)c(S(=O)(=O)N(Cc2ccccc2)C2CCNCC2)c1
100

Can you share its microsomal CLint at 0.5 μM? I mean this compound: [2H]C([2H])([2H])Oc1ncccc1S(=O)(=O)N(Cc1ccc(F)cc1)Cc1ccc(F)cc1
14

Can you share its microsomal CLint at 0.5 μM? I mean this compound: O=S(=O)(NC(CO)Cc1ccccc1)c1cc(F)ccc1F (stereo not drawn)
42

Can you share its microsomal CLint at 0.5 μM? I mean this compound: COc1ccc(OC)c(S(=O)(=O)N(Cc2ccccc2)C2CCCNC2)c1 (stereo not drawn)
347

Can you share its microsomal CLint at 0.5 μM? I mean this compound: CCC(Cc1ccccc1)Sc1nc(C)cc(C)c1C#N (stereo not drawn)
2010

Can you share its microsomal CLint at 0.5 μM? I mean this compound: COCCN(Cc1ccccc1)S(=O)(=O)c1c(OC)ccc(Cl)c1[S+](C)[O-] (stereo not drawn)
85

Can you share its microsomal CLint at 0.5 μM? I mean this compound: COc1ccc(Cl)cc1S(=O)(=O)N(CCO)Cc1ccccc1
180

Can you share its microsomal CLint at 0.5 μM? I mean this compound: COc1ccc(OC)c(S(=O)(=O)N(CCn2nc(C)cc2C)Cc2ccccc2)c1
2270

Can you share its microsomal CLint at 0.5 μM? I mean this compound: COc1ncc(Br)cc1S(=O)(=O)N(Cc1ccc(F)cc1)Cc1ccc(F)cc1
95

Can you share its microsomal CLint at 0.5 μM? I mean this compound: COc1ccc(OC)c(S(=O)(=O)NCc2ccccc2)c1
126

Can you share its microsomal CLint at 0.5 μM? I mean this compound: O=S(=O)(c1cccnc1OC(F)F)N(Cc1ccc(F)cc1)Cc1ccc(F)cc1
751

Can you share its microsomal CLint at 0.5 μM? I mean this compound: CCN(Cc1ccccc1)S(=O)(=O)c1cc(F)ccc1OC
383

Can you share its microsomal CLint at 0.5 μM? I mean this compound: CNc1ncccc1S(=O)(=O)N(Cc1ccc(F)cc1)Cc1ccc(F)cc1
401

Can you share its microsomal CLint at 0.5 μM? I mean this compound: O=S(=O)(NCc1ccccc1)c1ccccc1
50

Can you share its microsomal CLint at 0.5 μM? I mean this compound: COc1ccc(OC)c(S(=O)(=O)N(C)Cc2ccc(F)cc2)c1
414

Can you share its microsomal CLint at 0.5 μM? I mean this compound: COc1ccc(C#N)cc1S(=O)(=O)N(Cc1ccccc1)Cc1ccccc1
304
